tgt: T1, anchored ILT2 D3 domain protein (human)
T1 construct: on CHO cells; the entry includes leader remnant, V5 tag and CD24 GPI anchor signal
assay-explanation: flow cytometry on CHO cells expressing the anchored ILT2 D3 domain protein (SEQ ID NO: 48); stacked histograms, axis without numbers, no control histogram
assay-metric: binding result

3H5 (antibody, human IgG1, V domains shown) VH: QVQLKESGPGLVAPSQSLSITCTVSGFSLTSYGVSWVRQPPGKGLEWLGVIWGDGSTNYHSALISRLSISKDNSKSQVFLKLNSLQTDDTATYYCAKPRWDDYAMDYWGQGTSVTVSS VL: DIQMTQTTSSLSASLGDRVTISCRASQDISNYLNWYQQKPDGTVKLLIYYTSRLHSGVPSRFSGSGSGTDYSLTISNLEQEDIATYFCQQGNTLWTFGGGTKLEIK ... no binding
26D8 (antibody, human IgG1, V domains shown) VH: QVQLQQSGAELVKPGASVKLSCKASGYTFTEHTIHWIKQRSGQGLEWIGWFYPGSGSMKYNEKFKDKATLTADKSSSTVYMELTRLTSEDSAVYFCARHTNWDFDYWGQGTTLTVSS VL: DIVLTQSPASLAVSLGQRATISCKASQSVDYGGDSYMNWYQQKPGQPPKLLIYAASNLESGIPARFSGSGSGTDLTLNIHPVEEDDAAMYYCQQSNEEPWTFGGGTKLEIK ... no binding
12D12 (antibody, human IgG1, V domains shown) VH: QVQLQQPGAELVKPGASVRMSCKASGYTFTSYWVHWVKQRPGQGLEWIGVIDPSDSYTSYNQNFKGKATLTVDTSSKTAYIHLSSLTSEDSAVYFCARGERYDGDYFAMDYWGQGTSVTVSS VL: DIVMTQSPASLSVSVGETVTITCRASENIYSNLAWYQQKQGKSPQLLVYAATNLADGVPSRFSGSRSGTQYSLKINSLQSEDFGTYYCQHFWNTPRTFGGGTKLEIK ... no binding
